# assay-comment: Human liver microsome stability assay
# Assay type: in vitro ADME
# protocol-conditions: both sexes, human, microsomes, pH 7.4
endpoint-label: half-life at 0.5 μM

Would you please look over these solved cases?
Cn1cc(-c2cc(NS(C)(=O)=O)cc(F)c2Oc2ccccc2)c2cc[nH]c2c1=O    29 min
Cn1cc(-c2cc(NC(=O)C(C)(C)C)ccc2Oc2ccc(F)cc2F)c2cc[nH]c2c1=O    9.7 min
Cc1c(NS(C)(=O)=O)ccc(OCC2CC2)c1-c1cn(C)c(=O)c2[nH]ccc12    > 120 min

Attention now shifts to the item below.
Any idea what half-life at 0.5 μM was measured for "Cn1cc(-c2cc(CN3CCOCC3)ccc2OCC2CC2)c2cc[nH]c2c1=O" ?
47 min

###

# assay-comment: Mouse liver microsome stability assay
# Type: in vitro ADME
# protocol-conditions: male, CD1, mouse, microsomes, pH 7.4
# half-life at 0.5 μM annotations
Hey, just the number and the unit after it is fine.

Any idea what half-life at 0.5 μM was measured for "Cn1cc(-c2cc(S(C)(=O)=O)ccc2Oc2ccc(F)cc2F)c2cc(CN3CCOCC3)[nH]c2c1=O" ?
36 min

###

# assay-comment: Rat liver microsome stability assay
# Type: in vitro ADME
# protocol-conditions: rat liver microsomes (male Sprague-Dawley), 0.5 μM test compound, 0.25 mg/mL microsomal protein, pH 7.4, 37° C.; read-out: Stability in rat liver microsomes (t1/2 in minutes)
endpoint-label: log10(half-life at 0.5 μM) (log10 of the value in min)
Friendly reminder: values = log10 of half-life at 0.5 μM, unit min.

Would you please look over these solved cases?
CN(C)C(=O)Cc1ccc(OCc2ccccc2)c(-c2cn(C)c(=O)c3[nH]ccc23)c1    0.48
Cn1cc(-c2cc(NS(C)(=O)=O)ccc2Oc2ccc(F)cc2Cl)c2cc[nH]c2c1=O    1.62
CNS(=O)(=O)Nc1ccc(Oc2c(F)cc(F)cc2F)c(-c2cn(C)c(=O)c3[nH]ccc23)c1    1.52
Cn1cc(-c2cc(S(C)(=O)=O)ccc2Oc2ccc(F)cc2F)c2cc(C(=O)Nc3nccs3)[nH]c2c1=O    1.75
CCS(=O)(=O)c1ccc(Oc2ccc(F)cc2F)c(-c2cn(C)c(=O)c3[nH]ccc23)c1    1.91
Cn1cc(-c2cc(S(N)(=O)=O)cnc2Nc2ccccc2)c2cc[nH]c2c1=O    1.62
CCCS(=O)(=O)Nc1ccc(OC2CCOC2)c(-c2cn(C)c(=O)c3[nH]ccc23)c1 (stereo not shown)    1.30
Cn1cc(-c2cc(S(=O)(=O)Nc3ccc(F)cc3)ccc2OCC2CC2)c2cc[nH]c2c1=O    0.78

Any idea what log10(half-life at 0.5 μM) was measured for "CNS(=O)(=O)c1cnc(Oc2ccc(F)cc2F)c(-c2cn(C)c(=O)c3[nH]ccc23)c1" ?
1.72

Any idea what log10(half-life at 0.5 μM) was measured for "Cn1cc(-c2cc(S(C)(=O)=O)ccc2OC2CCCCCC2)c2cc[nH]c2c1=O" ?
0.70

Any idea what log10(half-life at 0.5 μM) was measured for "Cn1cc(-c2cc(S(C)(=O)=O)ccc2Oc2cc(F)cc(F)c2)c2cc[nH]c2c1=O" ?
0.90

Any idea what log10(half-life at 0.5 μM) was measured for "Cn1cc(-c2cc(S(=O)(=O)N3CCOCC3)ccc2Oc2ccc(F)cc2F)c2cc[nH]c2c1=O" ?
0.95

Any idea what log10(half-life at 0.5 μM) was measured for "Cn1cc(-c2cc(C(=O)NCc3ccccn3)ccc2Oc2ccc(F)cc2F)c2cc[nH]c2c1=O" ?
1.58

Any idea what log10(half-life at 0.5 μM) was measured for "COCCS(=O)(=O)Nc1ccc(Oc2ccc(F)cc2F)c(-c2cn(C)c(=O)c3[nH]ccc23)c1" ?
1.51

###

# assay-comment: Mouse liver microsome stability assay
# Assay type: in vitro ADME
# protocol-conditions: male, CD1, mouse, microsomes, pH 7.4
Tag: Yes if measured half-life at 0.5 μM is not below 40 min, No if it is.

Some solved cases for reference:
CCCS(=O)(=O)Nc1ccc(OC2CCCOC2)c(-c2cn(C)c(=O)c3[nH]ccc23)c1 (centres unmarked)    No
Cn1cc(-c2cc(S(C)(=O)=O)ccc2Oc2ccc(F)cc2F)c2cc[nH]c2c1=O    Yes
CCOC(=O)c1ccc(NC2CCCC2)c(-c2cn(C)c(=O)c3[nH]ccc23)c1    No

Is the recorded value of half-life at 0.5 μM equal to or greater than 40 min for this compound? "Cn1cc(-c2cc(NS(C)(=O)=O)cc(F)c2Oc2ccccc2)c2cc[nH]c2c1=O"
Yes

Is the recorded value of half-life at 0.5 μM equal to or greater than 40 min for this compound? "Cn1cc(-c2cc(NS(C)(=O)=O)ccc2OC2CCOCC2)c2cc[nH]c2c1=O"
Yes

Is the recorded value of half-life at 0.5 μM equal to or greater than 40 min for this compound? "Cn1cc(-c2cc(S(=O)(=O)C(F)(F)F)ccc2NCC2CC2)c2cc[nH]c2c1=O"
Yes

Is the recorded value of half-life at 0.5 μM equal to or greater than 40 min for this compound? "CCS(=O)(=O)Nc1ccc(Oc2ccc(F)cc2F)c(-c2cn(C)c(=O)c3[nH]cc(C=O)c23)c1"
No

Is the recorded value of half-life at 0.5 μM equal to or greater than 40 min for this compound? "CCN(C)C(=O)c1cc2c(-c3cc(NS(C)(=O)=O)ccc3Oc3ccccc3)nn(C)c(=O)c2[nH]1"
Yes

###

# Ki annotations
# experimental-system: human BRD4 first bromodomain (BDI_K57-E168) (Homo sapiens (Human))
# assay-comment: TR-FRET bromodomain binding assay, BRD4 first bromodomain

Would you please look over these solved cases?
CCS(=O)(=O)Nc1ccc(OCc2cc(C)nn2C)c(-c2cn(C)c(=O)c3[nH]ccc23)c1    22.3 nM
Cn1cc(-c2cc(S(C)(=O)=O)ccc2Oc2cc(F)ccc2F)c2cc[nH]c2c1=O    15.7 nM
Cn1cc(-c2cc(C(=O)N3CCN(C(=O)c4ccco4)CC3)ccc2Oc2ccc(F)cc2F)c2cc[nH]c2c1=O    43.5 nM

Any idea what Ki was measured for "Cn1nc(-c2cc(NS(C)(=O)=O)ccc2Oc2ccccc2)c2cc[nH]c2c1=O" ?
9.1 nM

Any idea what Ki was measured for "Cn1cc(-c2cc(S(C)(=O)=O)ccc2Oc2ccc3cccnc3c2)c2cc[nH]c2c1=O" ?
29.4 nM

Any idea what Ki was measured for "Cn1cc(-c2cc(NS(C)(=O)=O)ccc2Oc2ccc(F)cc2)c2cc[nH]c2c1=O" ?
2.1 nM

Any idea what Ki was measured for "Cn1cc(-c2cc(S(C)(=O)=O)ccc2OC2CCCCCC2)c2cc[nH]c2c1=O" ?
2.8 nM

Any idea what Ki was measured for "Cn1cc(-c2cc(S(C)(=O)=O)ccc2Oc2ccc(F)cc2F)c2cc[nH]c2c1=O" ?
16.7 nM

Any idea what Ki was measured for "Cn1cc(-c2cc(S(C)(=O)=O)ccc2Oc2ccccc2C#N)c2cc[nH]c2c1=O" ?
41.2 nM

Any idea what Ki was measured for "Cn1cc(-c2cc(C(=O)O)ccc2Oc2ccccc2)c2cc[nH]c2c1=O" ?
15.4 nM

Any idea what Ki was measured for "Cn1cc(-c2cc(S(C)(=O)=O)ccc2Oc2ccc3c(c2)CCC3=O)c2cc[nH]c2c1=O" ?
30.5 nM

Any idea what Ki was measured for "Cn1cc(-c2cc(C(=O)N3CCC(NC(=O)OC(C)(C)C)CC3)ccc2Oc2ccc(F)cc2F)c2cc[nH]c2c1=O" ?
274 nM

###

# assay-comment: Rat liver microsome stability assay
# Assay type: in vitro ADME
# protocol-conditions: rat liver microsomes (male Sprague-Dawley), 0.5 μM test compound, 0.25 mg/mL microsomal protein, pH 7.4, 37° C.; read-out: Stability in rat liver microsomes (t1/2 in minutes)
# half-life at 0.5 μM annotations

Would you please look over these solved cases?
CNS(=O)(=O)Nc1ccc(OC2CCC(F)(F)CC2)c(-c2cn(C)c(=O)c3[nH]ccc23)c1 [Example 104]    8 min
Cn1cc(-c2cc(C3=CCNCC3)ccc2OCC2CC2)c2cc[nH]c2c1=O [Example 340]    4 min
CCOC(=O)N1CCC(Oc2ccc(S(C)(=O)=O)cc2-c2cn(C)c(=O)c3[nH]ccc23)CC1 [Example 258]    91 min

Attention now shifts to the item below.
Any idea what half-life at 0.5 μM was measured for Cn1cc(-c2cc(S(=O)(=O)N3CC(F)(F)C3)ccc2OCC2CC2)c2cc[nH]c2c1=O [Example 308] ?
10 min

###

# Tested on: A-375
# assay-comment: Proliferation panel assay, Melanoma A-375
# Type: cell-based
# protocol-conditions: Homo sapiens, read-out: Cellular Proliferation EC50
# EC50 annotations
# number only, unit nM dropped from output

Cn1nc(-c2cc(NS(C)(=O)=O)ccc2Oc2ccccc2)c2cc(C(N)=O)[nH]c2c1=O [Example 78]    3610

Any idea what EC50 was measured for Cn1cc(-c2cc(NS(C)(=O)=O)ccc2Oc2ccccc2)c2cc[nH]c2c1=O [Example 4] ?
20
